Test system: OVCAR-3 ovarian
Assay: NCI tumour cell line growth inhibition, 48 h
# TGI listing for each entry below

# MOLECULE, TGI
measured = [
    ("CN(C)C(=O)OC1C(=O)N(C)c2ccc(Cl)cc2C2(c3ccccc3)N1C2(Cl)Cl (stereo not given)", "> 100 µM"),
    ("C=C/C(C)=C\\CC1[C@](C)(O)CC[C@H]2C(C)(C)C(=O)CC[C@]12C (stereo not given in full)", "> 100 µM"),
    ("O=C1/C(=C/c2ccccc2)CN(C(=O)CCN2CCOCC2)C/C1=C\\c1ccccc1", "11.5 µM"),
    ("Cn1ncnc1[C@H]1c2n[nH]c(=O)c3cc(F)cc(c23)N[C@@H]1c1ccc(F)cc1", "> 100 µM"),
    ("COc1ccc2c(c1)NC1=C(C(=O)OC1)C2c1cc(OC)c2c(c1)OCO2 (stereo not given)", "0.0241 µM"),
    ("COc1cccc(CCN2CCN(CCCc3ccccc3)CC2)c1", "> 100 µM"),
    ("CSC1=C(N)C(=O)c2[nH]cc(CO)c2C1=N", "0.346 µM"),
    ("OC1(C23CC4CC(CC(C4)C2)C3)CSCC1(O)C12CC3CC(CC(C3)C1)C2 (stereo not given)", "> 100 µM"),
    ("COc1ccc2c(CN3CCCC[C@H]3C(=O)O)cc3cc4c(cc3c2c1)OCO4", "3.41 µM"),
    ("CO/N=C1\\CC(NC(=O)CNC(=O)OC(C)(C)C)c2ccsc21 (stereo not given)", "> 100 µM"),
    ("CCOC(=O)CCC(NC(=O)OCc1ccccc1)C(=O)NC(CCC(=O)OCC)C(=O)NC(CCC(=O)OCC)C(=O)NC(CCC(=O)OCC)C(=O)NC(CCC(=O)OCC)C(=O)NC(CCC(=O)OCC)C(=O)NC(CCC(=O)OCC)C(=O)OCC (stereo not given)", "> 100 µM"),
    ("O=C(O)CC[C@H](NC(=O)c1ccc(-n2nc3ccc(O)cc3nc2=O)cc1)C(=O)O", "> 100 µM"),
    ("CCOP(=O)(/C=C\\n1cc(C)c(=O)[nH]c1=O)OCC", "> 100 µM"),
    ("O=C(/C=C/Sc1cc(C(F)(F)F)cc(C(F)(F)F)c1)c1ccc(Cl)cc1", "4.19 µM"),
    ("CCCCC(=O)c1c(O)nc2sccn2c1=O", "> 10 µM"),
    ("Cc1ccc(S(=O)(=O)c2c(COC(=O)c3cccc(C)c3)c(-c3ccccc3)nn2C)cc1", "> 100 µM"),
    ("CCOC(=O)c1nc2ccc(C(F)(F)F)cc2nc1Oc1cc(OC)c(OC)c(OC)c1", "> 100 µM"),
    ("Cc1ccc([S@](=O)c2occc2C=O)cc1", "6.41 µM"),
    ("O=[N+]([O-])c1ccc(-n2nnc(C3=NCCN3)c2-c2ccccc2)cc1", "> 100 µM"),
    ("CCCCCCCCCCCCCCCC(=O)OCC1OC(n2cc(F)c(=O)[nH]c2=O)C(N)C(O)C1O (stereo not given)", "9.72 µM"),
]
